From: patent US8450354B2

Kindly supply the reported IC50 values for the records listed here.
# Target Of Assay: BACE-1 enzyme (Homo sapiens, UniProt P56817)
# Construct: purchased R & D Systems 931AS
# Sequence (P56817 46-457 limits assumed): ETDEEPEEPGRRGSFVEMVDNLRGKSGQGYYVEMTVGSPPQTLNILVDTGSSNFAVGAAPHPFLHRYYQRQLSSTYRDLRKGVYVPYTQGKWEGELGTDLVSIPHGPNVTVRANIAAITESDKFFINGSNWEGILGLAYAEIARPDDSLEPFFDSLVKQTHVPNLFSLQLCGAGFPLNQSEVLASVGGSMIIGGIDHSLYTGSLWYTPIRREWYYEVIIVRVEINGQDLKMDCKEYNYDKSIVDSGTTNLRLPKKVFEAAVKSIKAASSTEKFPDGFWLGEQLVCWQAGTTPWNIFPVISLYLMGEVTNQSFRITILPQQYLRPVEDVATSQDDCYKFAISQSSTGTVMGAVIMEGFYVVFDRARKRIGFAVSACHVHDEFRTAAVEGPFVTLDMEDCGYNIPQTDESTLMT
# Method Notes: BACE Fluorescence Resonance Energy Transfer (FRET) Assay
# Assay type: biochemical
# Condition: pH 4-4.5, 30 min pre-incubation, about 1.5 hours reaction, asterisk = mean
Answers are plain numbers, in µM.

COCCOc1ccc2nc(C(=O)Nc3nc4cc(-c5ccc(Cl)c(C(F)(F)F)c5)ccc4[nH]3)cn2n1; 0.335
O=C(Nc1nc2cc(-c3cccc(C(F)(F)F)c3)ccc2[nH]1)c1cn2nc(O[C@H]3CCCNC3)ccc2n1; 0.36
O=C(O)CCNc1ccc2nc(C(=O)Nc3nc4cc(-c5cccc(Cl)c5)ccc4[nH]3)cn2n1; 0.328
CC(C)N(CCOc1ccc2nc(C(=O)Nc3nc4cc(-c5cc(F)cc(Cl)c5)ccc4[nH]3)cn2n1)C(C)C; 0.315
CC(C)(O)CCOc1ccc2nc(C(=O)Nc3nc4cc(-c5cc(F)cc(Cl)c5)ccc4[nH]3)cn2n1; 0.279

// for each compound in input: emit IC50
1. C[C@H](O)[C@H](C)Oc1ccc2nc(C(=O)Nc3nc4cc(-c5cccc(C(F)(F)F)c5)ccc4[nH]3)cn2n1
2. O=C(Nc1nc2cc(-c3cccc(C(F)(F)F)c3)ccc2[nH]1)c1cn2nc(OCCN3CCCC3=O)ccc2n1

Key:
0.136
0.316

###

# Target Of Assay: BACE-1 enzyme (Homo sapiens)
# Construct: purchased R & D Systems 931AS
# Method Notes: BACE Fluorescence Resonance Energy Transfer (FRET) Assay
# Format: biochemical
# Condition: pH 4-4.5, 30 min pre-incubation, about 1.5 hours reaction, asterisk = mean
Property Measured: IC50 (µM)
Numbers only, in µM.

Hi there! I need IC50 for each item below, if you can.
1. CN(C)CCOc1ccc2nc(C(=O)Nc3nc4cc(-c5ccc(Cl)c(C(F)(F)F)c5)ccc4[nH]3)cn2n1
2. O=C(Nc1nc2cc(-c3cccc(C(F)(F)F)c3)ccc2[nH]1)c1cn2nc(OCCNC3CCCCC3)ccc2n1
3. CN(CCOc1ccc2nc(C(=O)Nc3nc4cc(-c5cccc(OC(F)(F)F)c5)ccc4[nH]3)cn2n1)c1ccccn1
4. O=C(Nc1nc2cc(-c3cccc(C(F)(F)F)c3)ccc2[nH]1)c1cn2nc(OCCn3cncn3)ccc2n1
5. O=C(Nc1nc2cc(-c3cccc(Cl)c3)ccc2[nH]1)c1cn2nc(OCCO)ccc2n1

Key:
[0.361, 0.197, 0.322, 0.198, 0.128]

###

# Target Of Assay: BACE-1 enzyme (Homo sapiens)
# Construct: purchased R & D Systems 931AS
# Method Notes: BACE Fluorescence Resonance Energy Transfer (FRET) Assay
# Type: biochemical
# Condition: pH 4-4.5, 30 min pre-incubation, about 1.5 hours reaction, asterisk = mean
Consider the following compounds; for each one, report its IC50.
Answers are plain numbers, in µM.

Worked cases, answers included:
CCOCCOCCOc1ccc2nc(C(=O)Nc3nc4cc(-c5cccc(C(F)(F)F)c5)ccc4[nH]3)cn2n1; 0.32
CC(C)(C)NCCOc1ccc2nc(C(=O)Nc3nc4cc(-c5cccc(C(F)(F)F)c5)ccc4[nH]3)cn2n1; 0.291
CN(C)CCCOc1ccc2nc(C(=O)Nc3nc4cc(-c5cccc(C(F)(F)F)c5)ccc4[nH]3)cn2n1; 0.216
N[C@@H]1CCN(c2ccc3nc(C(=O)Nc4nc5cc(-c6cccc(C(F)(F)F)c6)ccc5[nH]4)cn3n2)C1; 0.23
C[C@@H](O)COc1ccc2nc(C(=O)Nc3nc4cc(-c5ccc(C(F)(F)F)c(Cl)c5)ccc4[nH]3)cn2n1; 0.371
C[C@@H](O)[C@@H](C)Oc1ccc2nc(C(=O)Nc3nc4cc(-c5cccc(C(F)(F)F)c5)ccc4[nH]3)cn2n1; 0.26
CN1CCC[C@H]1COc1ccc2nc(C(=O)Nc3nc4cc(-c5cc(F)cc(Cl)c5)ccc4[nH]3)cn2n1; 0.344
CC1(C)CCC(c2ccc3[nH]c(NC(=O)c4cn5nc(N6CCCC(O)C6)ccc5n4)nc3c2)CC1 (stereo not drawn); 0.191

Please examine the following record next.
Exercise: Would you mind telling me what IC50 value was observed for CC1(C)CCC(c2ccc3[nH]c(NC(=O)c4cn5nc(OC6CCC(O)CC6)ccc5n4)nc3c2)CC1 (stereo not drawn) ?
Key: 0.476

###

# Target Of Assay: BACE-1 enzyme (Homo sapiens, UniProt P56817)
# Construct: purchased R & D Systems 931AS
# Method Notes: BACE Fluorescence Resonance Energy Transfer (FRET) Assay
# Format: biochemical
# Condition: pH 4-4.5, 30 min pre-incubation, about 1.5 hours reaction, asterisk = mean
For each record, write down the corresponding IC50.
Give bare numbers, in µM.

Answered cases to consult:
O=C(Nc1nc2cc(-c3ccc(F)c(Cl)c3)ccc2[nH]1)c1cn2nc(OCCO)ccc2n1; 0.245
C[C@@H](O)CCOc1ccc2nc(C(=O)Nc3nc4cc(-c5cc(F)cc(Cl)c5)ccc4[nH]3)cn2n1; 0.318
O=C(Nc1nc2cc(-c3cccc(OC(F)(F)F)c3)ccc2[nH]1)c1cn2nc(OCCN3CCOCC3)ccc2n1; 0.234
CN1CCN(CCOc2ccc3nc(C(=O)Nc4nc5cc(-c6cc(F)cc(Cl)c6)ccc5[nH]4)cn3n2)CC1; 0.212

Quick one: give me IC50 for each item below, same order please.
1. O=C(Nc1nc2cc(-c3cc(F)cc(Cl)c3)ccc2[nH]1)c1cn2nc(OCCN3CCOCC3)ccc2n1
2. C[C@H](O)COc1ccc2nc(C(=O)Nc3nc4cc(-c5ccc(C(F)(F)F)c(Cl)c5)ccc4[nH]3)cn2n1

Key:
0.267
0.372

###

# Target Of Assay: BACE-1 enzyme (Homo sapiens, UniProt P56817)
# Construct: purchased R & D Systems 931AS
# Method Notes: BACE Fluorescence Resonance Energy Transfer (FRET) Assay
# Type: biochemical
# Condition: pH 4-4.5, 30 min pre-incubation, about 1.5 hours reaction, asterisk = mean
Property Measured: IC50 (µM)
Answers are plain numbers, in µM.

Worked examples, 2 compounds total:
O=C(Nc1nc2cc(-c3cc(F)cc(Cl)c3)ccc2[nH]1)c1cn2nc(OCCN3CCCCCC3)ccc2n1; 0.216
CN(C)CC(O)COc1ccc2nc(C(=O)Nc3nc4cc(-c5cccc(C(F)(F)F)c5)ccc4[nH]3)cn2n1 (stereo not shown); 0.268

Answer for every listed entry: what is its IC50? The entries follow.
1. CC(C)[C@@H](O)COc1ccc2nc(C(=O)Nc3nc4cc(-c5cc(F)cc(Cl)c5)ccc4[nH]3)cn2n1
2. CN(CCOc1ccc2nc(C(=O)Nc3nc4cc(-c5cccc(C(F)(F)F)c5)ccc4[nH]3)cn2n1)c1ccccn1
3. C[C@H](O)COc1ccc2nc(C(=O)Nc3nc4cc(-c5cccc(OC(F)(F)F)c5)ccc4[nH]3)cn2n1

Key:
1: 0.215; 2: 0.241; 3: 0.15

###

# Target Of Assay: BACE-1 enzyme (Homo sapiens)
# Construct: purchased R & D Systems 931AS
# Method Notes: BACE Fluorescence Resonance Energy Transfer (FRET) Assay
# Format: biochemical
# Condition: pH 4-4.5, 30 min pre-incubation, about 1.5 hours reaction, asterisk = mean
Give IC50 for every item shown.
Give your result as the value with the unit written after it.

# annotated cases, reported IC50 shown
C[C@H](O)CCOc1ccc2nc(C(=O)Nc3nc4cc(-c5cc(F)cc(Cl)c5)ccc4[nH]3)cn2n1; 0.298 µM
CCC[C@H](O)COc1ccc2nc(C(=O)Nc3nc4cc(-c5cc(F)cc(Cl)c5)ccc4[nH]3)cn2n1; 1.18 µM
CN(C)CCOc1ccc2nc(C(=O)Nc3nc4cc(-c5cc(F)cc(Cl)c5)ccc4[nH]3)cn2n1; 0.272 µM
O=C(Nc1nc2cc(-c3cccc(C(F)(F)F)c3)ccc2[nH]1)c1cn2nc(N3CCNCC3)ccc2n1; 0.2 µM

Proceed to the following item.
Exercise: Report IC50 for `C[C@@H](N)COc1ccc2nc(C(=O)Nc3nc4cc(-c5cccc(C(F)(F)F)c5)ccc4[nH]3)cn2n1` please.
Key: 0.346 µM
